# TARGET_ENTITY: unphosphorylated VEGF-R2Δ50 (FLVK) (Homo sapiens, UniProt P35968, DEL940-989/E990V)
# Construct: VEGF-R2Δ50 contains residues 806-939 and 990-1171; made in house; host or cells: baculovirus/insect cell system
# Sequence (P35968 with tags, fused parts or gaps DEL940-989/E990V limits assumed): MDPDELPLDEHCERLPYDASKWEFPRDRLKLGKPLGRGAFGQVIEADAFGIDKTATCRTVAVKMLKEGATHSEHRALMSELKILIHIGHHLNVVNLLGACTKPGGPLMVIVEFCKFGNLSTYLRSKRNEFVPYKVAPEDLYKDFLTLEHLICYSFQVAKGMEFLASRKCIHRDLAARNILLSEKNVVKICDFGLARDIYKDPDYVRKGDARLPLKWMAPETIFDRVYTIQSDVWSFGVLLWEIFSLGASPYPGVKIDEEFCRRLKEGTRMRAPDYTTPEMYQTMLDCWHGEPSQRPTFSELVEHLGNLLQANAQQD
# PROTOCOL_NOTES: VEGF-R2 coupled spectrophotometric assay, unphosphorylated construct (FLVK)
# Type: biochemical
# MEASUREMENT_CONTEXT: percent inhibition at 50 nM
# Procedure: This construct determines the ability of a test compound to inhibit tyrosine kinase activity. […] The production of ADP from ATP that accompanies phosphoryl transfer was coupled to oxidation of NADH using phosphoenolpyruvate (PEP) and a system having pyruvate kinase (PK) and lactic dehydrogenase (LDH). The oxidation of NADH was monitored by following the decrease of absorbance at 340 nm ([…]=6.22 cm^−1 mM^−1) using a Beckman DU 650 spectrophotometer. […]
REPORTED_METRIC: inhibition at 0.05 µM (%)

// below: answered molecules
MOLECULE	inhibition at 0.05 µM [%]
CNC(=O)n1c(C)cc2cc(Oc3ccnc4cc(C(=O)N5CC[C@@H](OC)C5)sc34)ccc21	96
C#CCNC(=O)n1c(C)cc2c(F)c(Oc3ccnc4cc(C(=O)N5CCC(O)C5)sc34)ccc21 (stereo in doubt)	99

(A) CNC(=O)n1c(C)cc2cc(Oc3ccnc4cc(C(=O)N5CC[C@@H](O)C5)sc34)ccc21
(B) CNC(=O)n1c(C)cc2cc(Nc3ccnc4cc(C(=O)N5C[C@H](O)C[C@H]5C(C)(C)O)sc34)ccc21
Q: Which gives the smaller inhibition at 0.05 µM number: A or B ? Refer to your chosen item by its label in the answer.
Result: B
(B: 60%, A: 99%)

----------
# PROTOCOL_NOTES: Mouse PK assay
# Assay type: in vivo, B6 female mice
# MEASUREMENT_CONTEXT: po
REPORTED_METRIC: Mouse Cmin, po (ng/mL)

(1) C#CCNC(=O)n1c(C)cc2cc(Oc3ccnc4cc(C(=O)N5CCC[C@H]5COC)sc34)ccc21 [Example 4c]
(2) C#CCNC(=O)n1c(C)cc2cc(Nc3ccnc4cc(C(=O)N5CC[C@@H](O)C5)sc34)ccc21 [Example 1o]
(3) C#CCNC(=O)n1c(C)cc2c(F)c(Oc3ccnc4cc(C(=O)N5CC[C@H](OC)C5)sc34)ccc21 [Example 5g]
Q: Rank descending by Mouse Cmin, po: all 3 compounds from above. Answer by listing the labels in the order asked for.
Result: 1, 3, 2
(1: 313 ng/mL, 3: 65 ng/mL, 2: 6 ng/mL)

----------
# TARGET_ENTITY: UniProtKB P35968
# PROTOCOL_NOTES: KDR (VEGFR2) phosphorylation in PAE-KDR cells assay
# MEASUREMENT_CONTEXT: PAE cells overexpressing human KDR, VEGF stimulated; read-out: PAE KDR autophos IC50
pIC50: −log10 of the molar value.
REPORTED_METRIC: pIC50

Some compounds with known pIC50 results, for comparison:
SMILES_STR	RECORDED_VALUE
C#CCNC(=O)n1c(C)cc2cc(Oc3ccnc4cc(C(=O)N5C[C@H](OC)[C@@H](OC)C5)sc34)ccc21	9.59
CCCNC(=O)n1c(C)cc2cc(Oc3ccnc4cc(C(=O)N5CC[C@H](O)C5)sc34)ccc21	9.48
CO[C@H]1CCN(C(=O)c2cc3nccc(Oc4ccc5c(cc(C)n5C(=O)NC5CC5)c4F)c3s2)C1	9.54

(1) Cc1cc2cc(Oc3ccnc4cc(C(=O)N5CC[C@@H](O)C5)sc34)ccc2n1C(=O)NC1CC1
(2) C#CCNC(=O)n1c(C)cc2cc(Oc3ccnc4cc(C(=O)N5CC[C@@H](OC)C5)sc34)ccc21
Q: Looking at recorded values for pIC50, does 1 or 2 come in lower? Select an item and report its label.
Result: 1
(1: 9.66, 2: 10.05)

----------
# PROTOCOL_NOTES: Mouse PK assay
# Assay type: in vivo, B6 female mice
# MEASUREMENT_CONTEXT: female, B6, mouse, plasma, po, 50 mg/kg
REPORTED_METRIC: AUC (ng·h/mL)

SMILES_STR	UNIT_ANNOTATION	RECORDED_VALUE
Cc1cc2cc(Oc3ccnc4cc(C(=O)N5CC[C@H](O)C5)sc34)ccc2n1C(=O)NCCO	ng·h/mL	1100

(A) C#CCNC(=O)n1c(C)cc2cc(Oc3ccnc4cc(C(=O)N5CCC[C@H]5COC)sc34)ccc21
(B) C#CCNC(=O)n1c(C)cc2cc(Oc3ccnc4cc(C(=O)N5CCC[C@@H]5CO)sc34)ccc21
Q: Hi! Which is lower in terms of AUC, the first one A or the second one B ? State the label of the item chosen.
Result: A

(A) CNC(=O)n1c(C)cc2cc(Nc3ccnc4cc(-c5nc(C(C)(C)O)cs5)sc34)ccc21
(B) CCCNC(=O)n1c(C)cc2cc(Oc3ccnc4cc(C(=O)N5CC[C@@H](N(C)C)C5)sc34)ccc21
Q: Select one: A or B . Criterion: greater recorded AUC. Please indicate the selected item by its label.
Result: A
(A: 10300 ng·h/mL, B: 2390 ng·h/mL)

(I) CNC(=O)n1c(C)cc2cc(Nc3cccc4cc(C(=O)N5C[C@H](OC)C[C@H]5CO)sc34)ccc21
(II) CNC(=O)n1c(C)cc2cc(Oc3ccnc4cc(C(=O)N5CCC[C@@H]5COC)sc34)ccc21
Q: Returns the identifier with the smallest measured AUC among I and II . Kindly give the label for the entry you pick.
Result: I

(a) CNC(=O)n1c(C)cc2cc(Nc3ccnc4cc(-c5nccn5C)sc34)ccc21
(b) CCCNC(=O)n1c(C)cc2cc(Oc3ccnc4cc(C(=O)N5CC[C@H](O)C5)sc34)ccc21
Q: For the pair a and b , which member has the lower AUC number? API: response body contains the label of the selected item.
Result: a
(a: 1170 ng·h/mL, b: 9480 ng·h/mL)

----------
# PROTOCOL_NOTES: Mouse PK assay
# Format: in vivo, B6 female mice
# MEASUREMENT_CONTEXT: female, B6, mouse, plasma, po, 50 mg/kg, p.o., 50 mg/kg, read-out: Mouse Cmax, po ng-h/mL
# Method: The pharmacokinetics (e.g., absorption and elimination) of drugs in mice were analyzed using the following experiment. Test compounds were formulated as a suspension in a 30:70 (PEG 400: acidified H2O) vehicle. […] Test-compound plasma concentrations (μg/mL) were determined by a comparison to standard curve (peak area vs. conc. μg/mL) using known concentrations of test compound extracted from plasma samples in the manner described above. […]
REPORTED_METRIC: Cmax (ng/mL)

# example entries with known answers
MOLECULE	UNIT_ANNOTATION	Cmax
Cc1cc2cc(Oc3ccnc4cc(C(=O)N5CC[C@@H](O)C5)sc34)ccc2n1C(=O)NC1CC1 [Example 4p]	ng/mL	2710
C#CCNC(=O)n1c(C)cc2cc(Oc3ccnc4cc(C(=O)N5CCC[C@H]5COC)sc34)ccc21 [Example 4c]	ng/mL	2760
Cc1cc2cc(Nc3ccnc4cc(C(=O)N5CCC[C@H]5CO)sc34)ccc2n1C(=O)NC1CC1 [Example 2e]	ng/mL	28
CNC(=O)n1c(C)cc2cc(Oc3ccnc4cc(C(=O)N5CC[C@@H](O)C5)sc34)ccc21 [Example 4n]	ng/mL	1110
CNC(=O)n1c(C)cc2c(F)c(Oc3ccnc4cc(C(=O)N5CCC[C@H]5CO)sc34)ccc21 [Example 5n]	ng/mL	1820
Cc1cc2cc(Nc3ccnc4cc(-c5nccn5C)sc34)ccc2n1C(=O)NC(C)C [Example 2f]	ng/mL	7700

(1) CNC(=O)n1c(C)cc2cc(Nc3ccnc4cc(-c5nc(C(C)(C)O)cs5)sc34)ccc21 [Example 3a]
(2) CNC(=O)n1c(C)cc2cc(Nc3ccnc4cc(C(=O)N5CCC[C@@H]5COC)sc34)ccc21 [Example 1b]
Q: Hi! Which is lower in terms of Cmax, the first one 1 or the second one 2 ? Label of pick, please.
Result: 2
(2: 24 ng/mL, 1: 3950 ng/mL)

----------
# TARGET_ENTITY: KDR (VEGFR2) (Homo sapiens, UniProt P35968)
# Sequence (P35968 20-1356): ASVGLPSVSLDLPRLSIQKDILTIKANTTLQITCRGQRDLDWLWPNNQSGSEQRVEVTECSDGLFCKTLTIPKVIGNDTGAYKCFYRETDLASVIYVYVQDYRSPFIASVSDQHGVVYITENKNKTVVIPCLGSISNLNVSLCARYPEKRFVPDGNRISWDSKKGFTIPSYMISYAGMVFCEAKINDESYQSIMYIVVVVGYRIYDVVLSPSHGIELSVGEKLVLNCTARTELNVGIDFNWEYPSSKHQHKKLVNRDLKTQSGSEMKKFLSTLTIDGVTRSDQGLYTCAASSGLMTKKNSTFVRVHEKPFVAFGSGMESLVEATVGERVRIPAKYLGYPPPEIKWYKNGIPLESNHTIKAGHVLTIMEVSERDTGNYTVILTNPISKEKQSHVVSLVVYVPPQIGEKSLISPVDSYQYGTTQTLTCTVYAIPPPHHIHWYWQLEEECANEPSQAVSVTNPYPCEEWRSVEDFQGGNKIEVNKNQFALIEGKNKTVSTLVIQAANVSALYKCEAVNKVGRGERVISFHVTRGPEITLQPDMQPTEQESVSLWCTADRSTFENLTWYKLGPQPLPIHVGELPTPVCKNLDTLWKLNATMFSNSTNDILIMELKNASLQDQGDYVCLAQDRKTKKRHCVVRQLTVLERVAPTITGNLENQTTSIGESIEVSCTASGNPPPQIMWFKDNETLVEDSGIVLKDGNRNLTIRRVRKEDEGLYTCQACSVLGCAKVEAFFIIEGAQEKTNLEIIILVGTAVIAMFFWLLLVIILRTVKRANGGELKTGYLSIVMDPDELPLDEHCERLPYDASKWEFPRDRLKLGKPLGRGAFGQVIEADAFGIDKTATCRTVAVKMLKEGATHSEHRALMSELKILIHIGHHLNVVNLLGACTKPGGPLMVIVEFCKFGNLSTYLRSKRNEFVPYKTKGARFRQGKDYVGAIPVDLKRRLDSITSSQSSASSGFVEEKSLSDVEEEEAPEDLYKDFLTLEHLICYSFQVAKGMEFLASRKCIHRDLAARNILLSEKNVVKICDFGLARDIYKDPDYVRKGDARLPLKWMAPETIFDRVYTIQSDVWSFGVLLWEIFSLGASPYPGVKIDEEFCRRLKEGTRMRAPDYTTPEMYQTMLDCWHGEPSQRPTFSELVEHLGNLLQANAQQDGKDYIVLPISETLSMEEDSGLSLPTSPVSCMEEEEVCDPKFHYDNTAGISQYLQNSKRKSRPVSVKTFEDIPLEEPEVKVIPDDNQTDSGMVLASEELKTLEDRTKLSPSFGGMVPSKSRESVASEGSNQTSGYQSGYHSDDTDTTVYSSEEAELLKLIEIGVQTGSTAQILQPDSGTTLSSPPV
# PROTOCOL_NOTES: KDR (VEGFR2) phosphorylation in PAE-KDR cells assay
# MEASUREMENT_CONTEXT: PAE cells overexpressing human KDR, VEGF stimulated; read-out: PAE KDR autophos IC50
pIC50: −log10 of the molar value.
REPORTED_METRIC: pIC50

COMPOUND	RECORDED_VALUE
CNC(=O)n1c(C)cc2cc(Nc3ccnc4cc(C(=O)N5CCC[C@@H]5CO)sc34)ccc21 [Example 1a]	8.97

(P) CO[C@H]1CCN(C(=O)c2cc3nccc(Oc4ccc5c(c4)cc(C)n5C(=O)NCCCO)c3s2)C1 [Example 9b]
(Q) CCC(=O)n1c(C)cc2cc(Oc3ccnc4cc(C(=O)N5CC[C@H](OC)C5)sc34)ccc21 [Example 10a]
(R) CNC(=O)n1c(C)cc2cc(Oc3ccnc4cc(C(=O)N5C[C@H](OC)[C@@H](OC)C5)sc34)ccc21 [Example 8b]
Q: Hey, quick one: sort these by pIC50, low to high? Field: ranking. Enter the labels in the order requested.
Result: Q, P, R
